- System: Human immunodeficiency virus 1
- Assay text: Concentration required to inhibit 50% of HIV-1 (human immunodeficiency virus-1) replication
- Type: functional, organism-based
Measured EC50 accompanies every entry in the list below.

Query smiles	EC50
C=C(C)[C@@H]1CC[C@]2(COC(=O)C(C)(C)CC(=O)O)CC[C@]3(C)[C@H](CC[C@@H]4[C@@]5(C)CC[C@H](OC(=O)CC(C)(C)C(=O)O)C(C)(C)[C@@H]5CC[C@]43C)[C@@H]12	0.87 nM
C=C(C)[C@@H]1CC[C@]2(C(=O)O)CC[C@]3(C)[C@H](CC[C@@H]4[C@@]5(C)CC[C@H](OC(=O)CC(C)(C)C(=O)O)C(C)(C)[C@@H]5CC[C@]43C)[C@@H]12	< 0.35 nM
C=C(C)[C@@H]1CC[C@]2(COC(=O)CC(C)(C)CC(=O)O)CC[C@]3(C)[C@H](CC[C@@H]4[C@@]5(C)CC[C@H](OC(=O)CC(C)(C)CC(=O)O)C(C)(C)[C@@H]5CC[C@]43C)[C@@H]12	0.66 nM
CC(C)[C@@H]1CC[C@]2(CO)CC[C@]3(C)[C@H](CC[C@@H]4[C@@]5(C)CC[C@H](OC(=O)CC(C)(C)C(=O)O)C(C)(C)[C@@H]5CC[C@]43C)[C@@H]12	1.7 nM
C=C(C)[C@@H]1CC[C@]2(C(=O)O)CC[C@]3(C)[C@H](CC[C@@H]4[C@@]5(C)CC[C@H](O)C(C)(C)[C@@H]5CC[C@]43C)[C@@H]12	1400 nM
